assay: Passive-Avoidance Anoxic-Induced-Amnesia Test; format: in vivo, Swiss-Webster mice; conditions: 50 mg/kg i.p., vs saline control; active if 30 percent
observed-property: % Improvement

In [3]: df
Out[3]:
                            chemical_smiles  reported_value
0    Cc1nn2c(-c3ccccc3)ccnc2c1C(=O)N=CN(C)C             66%
1       CN(C)C=NC(=O)c1cnn2c1NCC=C2c1cccnc1             66%
2  CN(C)C=NC(=O)c1cnn2c1NCC=C2c1cccc(C(F)(F)F)c1             57%
3     CN(C)C=NC(=O)c1cnn2c(-c3cccnc3)ccnc12             33%
4  CC(=NC(=O)c1cnn2c(-c3cccnc3)ccnc12)N(C)C             46%
